All values here come from the supplement of paper PMC10307832.

Listed here: items and their measured relative viability.
tested on: NCI-H596; assay: relative viability (nuclei count vs DMSO), 5 days (fraction); higher = more cells survive; conditions: first compound 4 µM

{"compound": "Clc1ccc(Nc2nnc(Cc3ccncc3)c3ccccc23)cc1 [Vatalanib] + Nc1ncn([C@H]2C[C@H](O)[C@@H](CO)O2)c(=O)n1 [Decitabine] (partner 2 µM)", "relative viability": 1.02}
{"compound": "COc1cc(N2CCC(C(N)=O)CC2)ccc1Nc1nc(N)c(Cl)c(Nc2ccccc2S(=O)(=O)C(C)C)n1 [HG-5-88-01] + NC(=O)Nc1cc(-c2cccc(F)c2)sc1C(=O)N[C@H]1CCCNC1 [AZD7762] (partner 0.2 µM)", "relative viability": 0.697}
{"compound": "COc1cc(N2CCC(C(N)=O)CC2)ccc1Nc1nc(N)c(Cl)c(Nc2ccccc2S(=O)(=O)C(C)C)n1 [HG-5-88-01] + C[C@]1(O)C[C@@H](c2nc(-c3ccc4ccc(-c5ccccc5)nc4c3)c3c(N)nccn32)C1 [Linsitinib] (partner 1 µM)", "relative viability": 1.17}
{"compound": "C[C@@H]1CN(CC(=O)Nc2ccc3c(c2)Cc2cccc(-c4cc(=O)cc(N5CCOCC5)o4)c2S3)C[C@H](C)O1 + O=C(c1cc(Cc2n[nH]c(=O)c3ccccc23)ccc1F)N1CCN(C(=O)C2CC2)CC1 [Olaparib] (partner 8 µM)", "relative viability": 0.486}
{"compound": "Clc1ccc(Nc2nnc(Cc3ccncc3)c3ccccc23)cc1 [Vatalanib] + C[C@]1(O)C[C@@H](c2nc(-c3ccc4ccc(-c5ccccc5)nc4c3)c3c(N)nccn32)C1 [Linsitinib] (partner 1 µM)", "relative viability": 1.08}
{"compound": "C[C@@H]1CN(CC(=O)Nc2ccc3c(c2)Cc2cccc(-c4cc(=O)cc(N5CCOCC5)o4)c2S3)C[C@H](C)O1 + COc1cccc2cc(-c3nc([C@H]4CC[C@H](C(=O)O)CC4)n4ncnc(N)c34)[nH]c12 [OSI-027] (partner 0.5 µM)", "relative viability": 0.549}
{"compound": "Clc1ccc(Nc2nnc(Cc3ccncc3)c3ccccc23)cc1 [Vatalanib] + Cc1nc(Nc2ncc(C(=O)Nc3c(C)cccc3Cl)s2)cc(N2CCN(CCO)CC2)n1 [Dasatinib] (partner 0.075 µM)", "relative viability": 0.592}
{"compound": "Clc1ccc(Nc2nnc(Cc3ccncc3)c3ccccc23)cc1 [Vatalanib] + N=C(N)NC(=N)NCCc1ccccc1 [Phenformin] (partner 250 µM)", "relative viability": 0.662}
{"compound": "COc1cc(N2CCC(C(N)=O)CC2)ccc1Nc1nc(N)c(Cl)c(Nc2ccccc2S(=O)(=O)C(C)C)n1 [HG-5-88-01] + Cc1cc(Nc2cc(N3CCN(C)CC3)nc(Sc3ccc(NC(=O)C4CC4)cc3)n2)n[nH]1 [Tozasertib] (partner 0.1 µM)", "relative viability": 1}
